- Tested on: pTau
- assay-notes: pTau assay (method not described)
- Format: cell-based
- assay-context: read-out: pTau
pIC50: −log10 of the molar value.
Would you mind labelling by pIC50? At or over 7 is yes (1), under is no (0).

Here are 3 molecules together with their reported answers.
molecule	label-value
C[C@H]1COCCN1c1ccncc1NC(=O)c1ccnc(NC(=O)C2CC2)c1 [Example 54]	yes (1)
O=C(Nc1cnccc1N1CCC(F)(F)C1)c1ccnc(NC(=O)C2CC2)c1 [Example 83]	no (0)
O=C(Nc1cnccc1N1CCCC(F)(F)C1)c1ccnc(NC(=O)C2CC2)c1 [Example 80]	yes (1)

Lookup: Has O=C(Nc1cnccn1)c1ccnc(NC(=O)C2CC2)c1 [Example 170] a recorded pIC50 greater than or equal to 7?
Found: no (0)

Lookup: Has C[C@@H]1COCCN1c1ccncc1NC(=O)c1ccnc(NC(=O)C2CC2)c1 [Example 52] a recorded pIC50 greater than or equal to 7?
Found: yes (1)

Lookup: Has CC(C)C(=O)Nc1cc(C(=O)Nc2cnccc2C(=O)c2ccccc2)ccn1 [Example 196] a recorded pIC50 greater than or equal to 7?
Found: no (0)

Lookup: Has O=C(Nc1cnccc1-c1ccc(Cl)cc1)c1ccnc(NC(=O)C2CCC(F)(F)C2)c1 (stereo not drawn) [Example 231] a recorded pIC50 greater than or equal to 7?
Found: yes (1)

Lookup: Has Cc1cccc2sc(NC(=O)c3ccnc(NC(=O)C4CC4)c3)nc12 [Example 184] a recorded pIC50 greater than or equal to 7?
Found: no (0)

Lookup: Has O=C(Nc1cncc(C2CCC2)c1)c1ccnc(NC(=O)C2CC2)c1 [Example 113] a recorded pIC50 greater than or equal to 7?
Found: no (0)

====

- System: pTau
- assay-notes: pTau assay (method not described)
- Assay type: cell-based
- assay-context: read-out: pTau
measure: pIC50
Convention used: pIC50 is expressed as -log10 of the molar concentration.

Before answering, review these 3 worked examples.
molecule	pIC50
O=C(Nc1cnccc1C1CCCCC1)c1ccnc(NC(=O)C2CC2)c1	5.92
O=C(Nc1cncc(-c2cncc(Cl)c2)c1)c1ccnc(NC(=O)C2CC2)c1	6.82
CC1CC1C(=O)Nc1cc(C(=O)Nc2cnccc2-c2ccccc2)ccn1 (stereo not drawn)	6.46

Now examine the next entry.
Lookup: Specify measured pIC50 for `COC(=O)c1cncc(NC(=O)c2ccnc(NC(=O)C3CC3)c2)c1` .
Found: 5.51

====

- tested-system: GSK3α (Homo sapiens, UniProt P49840)
- Sequence (P49840 whole entry, species assumed): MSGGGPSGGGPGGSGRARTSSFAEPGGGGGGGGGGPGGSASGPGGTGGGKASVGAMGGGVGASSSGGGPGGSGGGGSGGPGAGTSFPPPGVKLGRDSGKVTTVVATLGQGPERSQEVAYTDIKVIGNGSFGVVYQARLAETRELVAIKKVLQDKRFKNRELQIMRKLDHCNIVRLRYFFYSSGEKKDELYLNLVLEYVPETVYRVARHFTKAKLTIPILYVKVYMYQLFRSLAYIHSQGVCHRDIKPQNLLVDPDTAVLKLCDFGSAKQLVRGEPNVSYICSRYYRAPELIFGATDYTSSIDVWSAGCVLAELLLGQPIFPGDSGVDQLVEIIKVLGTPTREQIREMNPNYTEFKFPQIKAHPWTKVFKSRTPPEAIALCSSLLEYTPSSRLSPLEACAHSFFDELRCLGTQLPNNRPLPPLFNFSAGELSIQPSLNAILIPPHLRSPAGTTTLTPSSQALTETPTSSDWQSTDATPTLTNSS
- assay-notes: biochemical
measure: IC50 (nM)
// note: answer is a bare numeric in nM

Before answering, review these 7 worked examples.
compound	tested-system	unit-spec	reported-value
O=C(Nc1cncc(-c2ccccc2F)c1)c1ccnc(NC(=O)C2CC2)c1 [Example 116]	GSK3α (Homo sapiens, UniProt P49840)	nM	0.28
CC(C)C(=O)Nc1cc(C(=O)Nc2cnccc2OCCC(C)(C)O)ccn1 [Example 190]	GSK3α (Homo sapiens, UniProt P49840)	nM	1.4
CC1CN(c2ccncc2NC(=O)c2ccnc(NC(=O)C3CC3)c2)CCO1 (racemic) [Example 46]	GSK3α (Homo sapiens, UniProt P49840)	nM	0.37
O=C(Nc1cnccc1C(=O)C(F)(F)F)c1ccnc(NC(=O)C2CC2)c1 [Example 24]	GSK3α (Homo sapiens, UniProt P49840)	nM	1.2
O=C(Nc1cnccc1C(O)C(F)(F)F)c1ccnc(NC(=O)C2CC2)c1 (centres unmarked) [Example 23]	GSK3α (Homo sapiens, UniProt P49840)	nM	2.4
CC(C)C(=O)Nc1cc(C(=O)Nc2cnccc2OCC(C)(F)F)ccn1 [Example 202]	GSK3α (Homo sapiens, UniProt P49840)	nM	0.46
O=C(Nc1cnccc1-c1ccccc1)c1ccnc(NC(=O)C2CCC2)c1 [Example 212]	GSK3α (Homo sapiens, UniProt P49840)	nM	4.4

Now examine the next entry.
Lookup: Specify measured IC50 for C[C@@H]1CN(c2ccncc2NC(=O)c2ccnc(NC(=O)C3CC3)c2)CCO1 (single isomer, unassigned) [Example 77] .
Found: 2.7
